PROCEDURE_SUMMARY: inhibition of 3D7 malaria parasite growth – strain 3D7 (AID 2306);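 further: 0% = DMSO wells and 100% = chloroquine plus artemisinin control wells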
EXPERIMENTAL_PARAMETERS: P. falciparum 3D7 erythrocytic growth, LDH absorbance, 72 h; at 2 µM; stronger effect = higher value
growth inhibition values by entry
MEASUREMENT_LABEL: growth inhibition (%)

[[record]]
smiles = "COc1ccc2nccc(N3CCC(NCc4ccc5c(n4)NC(=O)CS5)CC3)c2n1"
observed_result = 100

[[record]]
smiles = "Cc1cc(N2Cc3ccccc3C2)nc(Nc2cccc(C#N)c2)n1"
observed_result = 100

[[record]]
smiles = "COc1cc2nc(Nc3ccc4c(ccn4Cc4ccccc4)c3)nc(Nc3ccc4c(ccn4Cc4ccccc4)c3)c2cc1OC"
observed_result = 89

[[record]]
smiles = "COc1cccc(N(CCCN2C(=O)c3cccc4cccc(c34)C2=O)C(=O)c2ccccc2C)c1"
observed_result = 86

[[record]]
smiles = "Cc1c(CN2CCCCC2)cccc1OCCCNc1nc(NCCc2ccc(O)cc2)nc(N2CCNCC2)n1"
observed_result = 101


====

TESTED_TARGET: Calcium-dependent protein kinase 4 (Plasmodium falciparum (isolate 3D7)) (UniProt Q8IBS5)
Sequence (Q8IBS5 whole entry, looked up): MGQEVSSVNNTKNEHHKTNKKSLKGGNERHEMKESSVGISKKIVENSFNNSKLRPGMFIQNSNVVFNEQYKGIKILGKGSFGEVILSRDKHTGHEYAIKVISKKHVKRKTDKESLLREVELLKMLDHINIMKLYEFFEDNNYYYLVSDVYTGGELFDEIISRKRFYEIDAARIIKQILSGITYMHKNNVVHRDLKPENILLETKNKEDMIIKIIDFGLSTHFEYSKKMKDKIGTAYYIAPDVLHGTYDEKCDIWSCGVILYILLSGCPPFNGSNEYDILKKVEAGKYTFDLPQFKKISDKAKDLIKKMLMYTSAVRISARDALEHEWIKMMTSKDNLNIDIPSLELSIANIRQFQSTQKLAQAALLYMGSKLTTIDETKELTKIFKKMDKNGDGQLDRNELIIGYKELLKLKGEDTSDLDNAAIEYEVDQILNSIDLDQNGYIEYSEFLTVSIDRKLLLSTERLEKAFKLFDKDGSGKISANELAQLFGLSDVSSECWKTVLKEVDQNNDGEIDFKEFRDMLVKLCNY
PROCEDURE_SUMMARY: PfCDPK4 kinase inhibitors, biochemical, TCAMS library (AID 1159588)
EXPERIMENTAL_PARAMETERS: recombinant PfCDPK4, Kinase-Glo ATP depletion luminescence
Entries with a potency or affinity are not part of this list. Calls of active or inactive are those of the source. No cut-off is given here; in the data, nearly all actives have IC50 up to about 0.91 µM.
MEASUREMENT_LABEL: outcome

[[record]]
compound = "O=C(NCC1CCN(CC2CCCCC2)C1)c1cc(-c2cccc(Cl)c2)cs1 (centres undefined)"
tested_target = "Calcium-dependent protein kinase 4 (Plasmodium falciparum (isolate 3D7)) (UniProt Q8IBS5)"
observed_result = "inactive"

[[record]]
compound = "O=C(NC(=O)c1ccccc1O)c1ccccc1O"
tested_target = "Calcium-dependent protein kinase 4 (Plasmodium falciparum (isolate 3D7)) (UniProt Q8IBS5)"
observed_result = "inactive"

[[record]]
compound = "COc1cccc(C23N=C(Nc4nc5ccccc5[nH]4)NC2(c2cccc(OC)c2)NC(Nc2nc4ccccc4[nH]2)=N3)c1 (centres undefined)"
tested_target = "Calcium-dependent protein kinase 4 (Plasmodium falciparum (isolate 3D7)) (UniProt Q8IBS5)"
observed_result = "inactive"

[[record]]
compound = "CC(C)C[C@H]1c2[nH]c3ccc(Cl)cc3c2CCN1C(=O)CCc1ccccc1"
tested_target = "Calcium-dependent protein kinase 4 (Plasmodium falciparum (isolate 3D7)) (UniProt Q8IBS5)"
observed_result = "inactive"

[[record]]
compound = "COc1cc(-c2ccc3c(-c4ccc(C(=O)N5CCN(C)CC5)cc4)[nH]nc3n2)cc(OC)c1OC"
tested_target = "Calcium-dependent protein kinase 4 (Plasmodium falciparum (isolate 3D7)) (UniProt Q8IBS5)"
observed_result = "inactive"

[[record]]
compound = "O=C(N[C@H]1CCN(CCc2ccc(O[C@H]3CCNC3)c(F)c2)C1)c1ccc(Cl)c(Cl)c1"
tested_target = "Calcium-dependent protein kinase 4 (Plasmodium falciparum (isolate 3D7)) (UniProt Q8IBS5)"
observed_result = "inactive"

[[record]]
compound = "CCCNCc1ccc(-c2ccc(CN(CC3CCCO3)C(=O)COc3ccccc3Cl)cc2)nc1 (centres undefined)"
tested_target = "Calcium-dependent protein kinase 4 (Plasmodium falciparum (isolate 3D7)) (UniProt Q8IBS5)"
observed_result = "inactive"

[[record]]
compound = "CNC(=O)c1cnc(Nc2ccc(N3CCN(C)CC3)cc2)nc1Nc1cccc([N+](=O)[O-])c1"
tested_target = "Calcium-dependent protein kinase 4 (Plasmodium falciparum (isolate 3D7)) (UniProt Q8IBS5)"
observed_result = "inactive"

[[record]]
compound = "CCOC(=O)CCc1cc(F)c(F)c(OC[C@H](O)CNC(C)(C)C(O)c2ccc3ccccc3c2)c1 (some centres undefined)"
tested_target = "Calcium-dependent protein kinase 4 (Plasmodium falciparum (isolate 3D7)) (UniProt Q8IBS5)"
observed_result = "inactive"

